The origin of these recorded values is patent US20230242651A1.

pKd for assorted binders
- tested.target: T1, human interleukin-23 receptor (IL23R) (human, UniProt Q5VWK5 24-355, limits assumed)
- T1 construct: also called human IL23R
- T1 sequence (looked up): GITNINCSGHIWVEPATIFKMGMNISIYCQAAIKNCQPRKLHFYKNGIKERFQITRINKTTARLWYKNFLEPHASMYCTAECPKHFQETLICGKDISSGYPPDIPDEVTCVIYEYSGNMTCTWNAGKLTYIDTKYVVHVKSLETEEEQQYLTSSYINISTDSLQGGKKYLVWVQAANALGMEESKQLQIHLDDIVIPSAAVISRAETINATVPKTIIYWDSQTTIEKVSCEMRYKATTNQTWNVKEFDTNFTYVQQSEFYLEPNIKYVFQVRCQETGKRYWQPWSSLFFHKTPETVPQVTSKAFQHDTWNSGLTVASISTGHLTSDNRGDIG
- test.protocol: SPR, scFv (summary table)
pKd: −log10 of the molar value.

binder	pKd
Vκ3/VH3 consensus (uncapped), human IL23R specific scFv (scFv, scFv VL-linker-VH, made in E. coli; Vκ framework IV (uncapped, full consensus); also called Vκ3VH3 uncapped) scFv: DIVLTQSPATLSLSPGERATLSCQASENIYSFLAWYQQKPGQAPRLLIYSASKLAAGVPARFSGSGSGTDFTLTISSLEPEDFAVYYCQQTNRYSNPDIYNVFGQGTKVEIKRGGGGSGGGGSGGGGSGGGGSEVQLVESGGGLVQPGGSLRLSCAASGIDFNSNYYMCWVRQAPGKGLEWVSCIYVGSHVNTYYANWAKGRFTISRDNSKNTLYLQMNSLRAEDTAVYYCATSGSSVLYFKFWGQGTLVTVSS	10.40
Vκ1/VH4 consensus λ-capped, human IL23R specific scFv (scFv, scFv VL-linker-VH, made in E. coli; also called Vκ1VH4 capped) scFv: DIQMTQSPSSLSASVGDRVTITCQASENIYSFLAWYQQKPGKAPKLLIYSASKLAAGVPSRFSGSGSGTDFTLTISSLQPEDFATYYCQQTNRYSNPDIYNVFGGGTKLTVLGGGGGSGGGGSGGGGSGGGGSQVQLQESGPGLVKPSETLSLTCTVSGIDFNSNYYMCWIRQPPGKGLEWIGCIYVGSHVNTYYANWAKGRVTISVDTSKNQFSLKLSSVTAADTAVYYCATSGSSVLYFKFWGQGTLVTVSS	10.34
Vκ3/VH1A consensus λ-capped, human IL23R specific scFv (scFv, scFv VL-linker-VH, made in E. coli; also called Vκ3VH1A capped) scFv: DIVLTQSPATLSLSPGERATLSCQASENIYSFLAWYQQKPGQAPRLLIYSASKLAAGVPARFSGSGSGTDFTLTISSLEPEDFAVYYCQQTNRYSNPDIYNVFGGGTKLTVLGGGGGSGGGGSGGGGSGGGGSQVQLVQSGAEVKKPGSSVKVSCKASGIDFNSNYYMCWVRQAPGQGLEWMGCIYVGSHVNTYYANWAKGRVTITADESTSTAYMELSSLRSEDTAVYYCATSGSSVLYFKFWGQGTLVTVSS	9.23
